# Tested on: HOP-92 NSCLC
# test-summary: NCI-60 one-dose screen, 48 h (100 = growth as untreated, 0 = no growth, -100 = all killed)
# condition-context: 10 µM unless noted
The panel holds about 83,000 compounds, 20% with a hit somewhere; the sample as a whole holds those more often. The source made the active and inactive calls. The calls were made as follows: active = growth percent below 10; inactive = the rest.
Reported growth is given for each of the following compounds.
measurement-kind: growth

>>> print(df.to_string())
                                    compound          measured
 0  COC(=O)c1c2c(c(C)[n+]([O-])c1C)C(=O)C=C(NCc1ccc(OC)cc1)C2=O   -35.3% (active)
 1  C=CCc1c(O)c(C(=O)/C=C/c2ccc(Cl)cc2)c(OC)c2ccoc12  48.6% (inactive)
 2  CCN(CC)C(=S)SC(SC(=S)N(CC)CC)C(=O)c1nnn(-c2ccc([N+](=O)[O-])cc2)c1C  89.5% (inactive)
 3            CCCCNc1ccc(C#N)c(OCCN(CC)CC)c1  94.4% (inactive)
 4  Cc1oc(-c2ccc(Cl)cc2)nc1/C=C/C(=O)c1ccccc1  88.4% (inactive)
 5          O=c1oc2ccc([N+](=O)[O-])cc2cc1Br  83.7% (inactive)
 6  CC(C)c1ccc(NC(=O)Nc2ccc(NC(=O)CCCC(=O)NOCc3ccccc3)cc2)cc1   104% (inactive)
 7     CCCCCCC1(C)NCCO1 (stereo unspecified)   102% (inactive)
 8  O=C1Nc2ccccc2/C1=C\c1nc(-c2ccccc2)n2ccccc12   121% (inactive)
 9  COc1cccc(CNc2ncnc3c2ncn3C2OC(CO)C(O)C2O)c1O (stereo unspecified)   -32.7% (active)
10  O=C(/C=C/c1cn(-c2ccccc2)nc1-c1ccc([N+](=O)[O-])cc1)c1ccc(Cl)cc1  58.5% (inactive)

* * *

Reported growth is given for each of the following compounds.
# Test system: TK-10 renal
# test-summary: NCI-60 one-dose screen, 48 h (100 = growth as untreated, 0 = no growth, -100 = all killed)
# condition-context: 10 µM unless noted
# Description: Growth inhibition of the TK-10 human tumor cell line is measured as a screen for anti-cancer activity. Cells are grown in 96 well plates and exposed to the test compound for 48 hours. Compounds are tested at a single concentration, which is 10^-5 M for most compounds. The reported endpoint is percent growth (GI% or GIPRCNT), where numbers from 0 - 100% represent growth inhibition, and numbers from -100% - 0 represent cell death. For example, a value of 40 represents 60% growth inhibition. […]
About 83,000 compounds went through this panel and 20% of them were active in at least one assay; those are over-represented in the sample as a whole.

compound	experimental-system	growth, %
O=C1/C(=C/c2ccc(F)cc2)COc2ccc(O)cc21	TK-10 renal	100
O=C(c1ccccc1)C1C(=O)N2C(=S)N(c3ccccc3)C(=O)C2C1c1ccc(Cl)cc1 (centres undefined)	TK-10 renal	126
CCOC(=O)C1=C(NC)OCC1=O	TK-10 renal	99.4
Brc1c2c(c(Br)c3ccccc13)CCCC2	TK-10 renal	99.2
Cn1c(O)c(C=NCCN=Cc2c(O)n(C)c(=O)n(C)c2=O)c(=O)n(C)c1=O	TK-10 renal	116
Cc1ccc(-c2nc3nc(-c4ccc(F)cc4)nc(N4CCNCC4)c3o2)cc1	TK-10 renal	-35.8
O=C(OCc1ccc2cccc(O)c2n1)N1CCN(C(=O)c2cc3cc(F)ccc3[nH]2)CC1	TK-10 renal	-97.1
O=C(Nc1ccc(-c2nc(N3CCOCC3)c3cccn3n2)cc1)Nc1cccnc1	TK-10 renal	-17.4
Cc1ccccc1Cn1cnc2ccc(-c3cc(NC(=O)c4ccc(NC5CCN(C)CC5)cc4)n[nH]3)cc21	TK-10 renal	105
CN(CCn1sc(=O)n(Cc2ccccc2)c1=O)Cc1ccc2c(Cl)cc(Cl)c(O)c2n1	TK-10 renal	63.7
N=C(N)c1ccc(-c2ccc(-c3ccc(Cl)cc3)s2)nc1	TK-10 renal	103
CCS/C(Nc1ccccc1)=C(\C#N)C(=O)N/N=C/c1ccc(Cl)cc1Cl	TK-10 renal	56.7
COc1ccc2[nH]cc(-c3nc(-c4cn(C)c5c(Cl)nccc45)cs3)c2c1	TK-10 renal	71.1
O=C(Cc1ccccc1)Nc1nc(O)c(/C=C2\C(=O)C=Cc3ccccc32)s1	TK-10 renal	150
CN(C)CCNC(=O)c1cccc(-c2cnc3ccc(-c4ccc5c(c4)OCO5)nn23)c1	TK-10 renal	75.9
C#CCOc1cccc(Nc2ncnc3c(NC(=O)C=C)cccc23)c1	TK-10 renal	-6.1
C=C(C)[C@@H]1CC[C@]2(C(=O)O)CC[C@]3(C)[C@H](CC[C@@H]4[C@@]5(C)C[C@@H](Cc6cn(CCO[C@@H]7O[C@H](COC(C)=O)[C@H](OC(C)=O)[C@H](OC(C)=O)[C@H]7OC(C)=O)nn6)[C@H](O)C(C)(C)[C@@H]5CC[C@]43C)[C@@H]12	TK-10 renal	79.3
Cc1cc(N)c2cc(NC(=O)/C=C\c3ccccc3Cl)ccc2n1	TK-10 renal	-90
CN(C)CCCC1(c2ccc(F)cc2)OCc2cc(-c3cccc4[nH]ccc34)ccc21 (centres undefined)	TK-10 renal	58.5

Provenance of the data: PubChem BioAssay (NCI)
